Listed here are binders together with their documented interaction score.
Target: T1, O7
T1 chain: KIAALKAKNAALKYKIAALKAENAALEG
Assay: two-hybrid library CC0;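 also: natural log of median RNA to DNA barcode read ratio; higher means stronger binding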
Settings: mean of both orientations
Just the number.

* ENAALEAEIAALEYENAALEAKIAALKG [O14] | -1.03
* KNAALKAENAALEYEIAALEAEIAALEG [O1] | -2.69
* KIAALKAEIAALEYENAALEAENAALEG [O11] | -2.69
* KNAALKAENAALEYKIAALKAKIAALKG [O10] | -2.72
* KIAALKAEIAALEYKNAALKAKNAALKG [O4] | -2.75

Ask: Record request: interaction score value, item KIAALKAKNAALKYEIAALEAKNAALKG [O16]
Result: -2.48

Ask: Now the binder ENAALEAEIAALEYKNAALKAEIAALEG [O5]
Result: -2.67
